# testMethodNotes: chemical genetic growth profiling, strain panel (AID 1159580);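 also: tested at 20 µM; growth read once vehicle control cultures reached saturation at 30 °C; 1 = growth at the plate median or of vehicle wells; lower values mean less growth of the strain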
# testConditions: S. cerevisiae deletion strains, growth OD, locus YNR049C, strain mso1, active compounds read low
In all, about 5,500 compounds went through this assay and about 2,000 (36%) were called active. Roughly 18% stayed inconclusive and do not appear here. Some of the results follow.
resultType: normalized growth
Field format: numeric only.

So for "CCNc1nc(Cl)nc(NC(C)C)n1" , the logged normalized growth turned out to be 1

The measured normalized growth associated with "Cc1nccc2c1[nH]c1ccccc12" reads 0.976

The value of normalized growth measured for the compound "C[C@H]1C(=O)O[C@@H]2CCN3CC=C(COC(=O)[C@](C)(O)[C@]1(C)O)[C@H]23" turned out to be 0.989

compound "c1ccc2c(c1)[nH]c1cnccc12" , normalized growth observed: 1.01

Kindly note the recorded normalized growth for "COc1c2occc2cc2ccc(=O)oc12" , which is 0.962

Measured normalized growth, "COP(=S)(OC)SCn1nnc2ccccc2c1=O" : 1.01

compound "O=C(O)c1cccc(O)c1O" , normalized growth observed: 1.02

---

Please respond with reported normalized growth for every item in the list.
# testMethodNotes: chemical genetic growth profiling, strain panel (AID 1159580);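 also: tested at 20 µM; growth read once vehicle control cultures reached saturation at 30 °C; 1 = growth at the plate median or of vehicle wells; lower values mean less growth of the strain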
# testConditions: S. cerevisiae deletion strains, growth OD, locus YKL068W, active compounds read low
About 2,000 (36%) of roughly 5,500 compounds were called active. Not shown: some 18% with an inconclusive outcome. This is one part of the list.

The recorded normalized growth for "CC(C)=CCC1=C(O)c2ccccc2C(=O)C1=O" is 0.887 (active)

Briefly, normalized growth measured for "NCCS" : 1 (inactive)

Record summary for "CC1=C2[C@](C)(C=CC1=O)C[C@H](O)[C@H]1[C@H](C)C(=O)O[C@]21C" : reported normalized growth = 1.04 (inactive)

According to the records, this compound CCOC(=O)C1=C(C)NC(C)=C(C(=O)OC)C1c1cccc([N+](=O)[O-])c1 (centres undefined) displays normalized growth of 0.996 (inactive)

Recorded normalized growth (compound "Cc1ncc([N+](=O)[O-])n1CCO" ): 0.99 (inactive)

For this compound ( "CCCCC(=O)N(Cc1ccc(-c2ccccc2-c2nn[nH]n2)cc1)[C@H](C(=O)O)C(C)C" ), measured normalized growth is 0.964 (inactive)

Record summary for "COc1cc(O)c(C(C)=O)c(OC)c1" : reported normalized growth = 0.99 (inactive)

// sample "COc1c(O)cc(O)cc1O" , its normalized growth was 0.995 (inactive)

Value of measured normalized growth for the entry "O=C1c2ccccc2C(=O)c2c1ccc(O)c2O" : 0.854 (active)

Value of measured normalized growth for the entry CC(C(=O)O)c1ccc(N2Cc3ccccc3C2=O)cc1 (centres undefined) : 1 (inactive)

Input "CN1CCN(CCCN2c3ccccc3Sc3ccc(Cl)cc32)CC1" . Output normalized growth: 0.989 (inactive)

Form field normalized growth, entry "COc1cc(O)c(C(=O)c2ccccc2)c(OC)c1" : 0.986 (inactive)

Recorded normalized growth (compound "Cn1c(=O)[nH]c(=O)c2[nH]cnc21" ): 0.97 (inactive)

Form: compound = "O=c1n(CCCN2CCN(c3cccc(Cl)c3)CC2)nc2ccccn12" ; normalized growth = 0.989 (inactive)

Lab book: normalized growth of "CC(=O)N[C@@H](CC(=O)O)C(=O)O" noted as 1.01 (inactive)

The reported normalized growth of the compound "COc1ccc(Cc2nccc3cc(OC)c(OC)cc23)cc1OC" was 0.999 (inactive)

Consider CCCC(=O)Nc1ncnc2c1ncn2C1O[C@@H]2COP(=O)(O)O[C@H]2[C@H]1OC(=O)CCC (some centres undefined) . Its measured normalized growth is 1.03 (inactive)

Recorded result, "c1ccc2c(c1)[nH]c1cnccc12" , normalized growth: 0.975 (inactive)

Sure, the documented normalized growth for O=C1OC(=O)C2C3CCC(O3)C12 (centres undefined) is 1 (inactive)

Record summary for CC(=O)O[C@@H]1CC2C(C)(C)C(=O)[C@@H]3O[C@@H]3[C@]2(C)C2CC[C@]3(C)C(=CC(=O)O[C@H]3c3ccoc3)[C@@]21C (some centres undefined) : reported normalized growth = 0.986 (inactive)

The compound "CCOc1ccc(Cc2nccc3cc(OCC)c(OCC)cc23)cc1OCC" showed normalized growth equal to 0.986 (inactive)

Lab book: normalized growth of "COc1ccc2c(c1)[nH]c1c(C)nccc12" noted as 0.978 (inactive)

For reference, reported normalized growth for "CN(C)c1nc(N(C)C)nc(N(C)C)n1" stands at 1.01 (inactive)

The compound identified as C[C@]12C=CC(=O)C=C1CCC1C2C(=O)C[C@@]2(C)C1CC[C@]2(O)C(=O)CO (some centres undefined) registered its normalized growth at 0.989 (inactive)
